Cited source: patent US10981932B2

System: SUDHL10
protocolDetails: Induction of caspase-3/7 activity (Caspase-Glo 3/7), SUDHL10
Type: cell-based
conditionLabel: Homo sapiens, SU-DHL10, 3 h, caspase-3/7 induction, SUDHL10 cells, 3 h treatment; median
Please note: EC50 exactly at 20 µM is rule not met. Only values below 20 µM get rule met.

[ask] Is EC50 of COc1ccccc1-c1ncc(OCc2nn(C)c3c2-c2cccc4c(CCCOc5cccc6ccccc56)c(C(=O)O)n(c24)CCCN(C)C3)cn1 (single isomer, unassigned) strictly below 20 µM?
[reply] rule met

[ask] Try this compound next: Cn1nc(COc2ccc(C3(O)CCOCC3)cc2)c2c1COCC=CCn1c(C(=O)O)c(CCCOc3cccc4ccccc34)c3cccc-2c31 (racemic)
[reply] rule not met

[ask] Try this compound next: Cc1nn(C)c2c1-c1cccc3c(CCCOc4cccc5cc(F)ccc45)c(C(=O)O)n(c13)CCCOC2 (single isomer, unassigned; enantiomer 2) [Example 048]
[reply] rule met

[ask] Try this compound next: Cn1nc2c(c1CN1CCOCC1)-c1cccc3c(CCCOc4cccc5ccccc45)c(C(=O)O)n(c13)C/C=C\COC2 (racemic)
[reply] rule not met

[ask] Try this compound next: Cc1c2c(nn1C)COCCCn1c(C(=O)O)c(CCCOc3cccc4ccccc34)c3cccc-2c31 (racemic) [Example 063]
[reply] rule met

[ask] Try this compound next: Cn1nc(COc2ccc(NS(C)(=O)=O)cc2)c2c1COCCCCn1c(C(=O)O)c(CCCOc3cccc4ccccc34)c3cccc-2c31 (single isomer, unassigned; enantiomer 1)
[reply] rule not met

[ask] Try this compound next: Cc1ccc2cccc(OCCCc3c(C(=O)O)n4c5c(cccc35)-c3c(C)nn(C)c3COCCCC4)c2c1 (racemic)
[reply] rule not met

[ask] Try this compound next: O=C(O)c1c(CCCOc2cccc3ccccc23)c2cccc3c2n1CCCCOCc1nn2c(c1-3)OCCC2 (racemic)
[reply] rule met

[ask] Try this compound next: Cc1ccc2c(CCCOc3cccc4ccccc34)c(C(=O)O)n3c2c1-c1c(nn(C)c1C)COC/C=C\C3 (racemic)
[reply] rule met

[ask] Try this compound next: Cc1ccc2c(CCCOc3cccc4ccccc34)c(C(=O)O)n3c2c1-c1c(C)nn(C)c1COCC=CC3 (racemic)
[reply] rule not met

[ask] Try this compound next: CCn1nc(C2CC2)c2c1COCCCCn1c(C(=O)O)c(CCCOc3cccc4ccccc34)c3cccc-2c31 (single isomer, unassigned; enantiomer 1) [Example 089]
[reply] rule not met

[ask] Try this compound next: Cc1nn(C)c2c1-c1cccc3c(CCCOc4cccc5ccccc45)c(C(=O)O)n(c13)CCCCN2
[reply] rule not met
